Cited source for all entries: BindingDB's records for doi:10.1016/s0165-0270(00)00358-7

Molecular target: Alpha-2C adrenergic receptor (Rattus norvegicus)
Sequence (P22086 whole entry): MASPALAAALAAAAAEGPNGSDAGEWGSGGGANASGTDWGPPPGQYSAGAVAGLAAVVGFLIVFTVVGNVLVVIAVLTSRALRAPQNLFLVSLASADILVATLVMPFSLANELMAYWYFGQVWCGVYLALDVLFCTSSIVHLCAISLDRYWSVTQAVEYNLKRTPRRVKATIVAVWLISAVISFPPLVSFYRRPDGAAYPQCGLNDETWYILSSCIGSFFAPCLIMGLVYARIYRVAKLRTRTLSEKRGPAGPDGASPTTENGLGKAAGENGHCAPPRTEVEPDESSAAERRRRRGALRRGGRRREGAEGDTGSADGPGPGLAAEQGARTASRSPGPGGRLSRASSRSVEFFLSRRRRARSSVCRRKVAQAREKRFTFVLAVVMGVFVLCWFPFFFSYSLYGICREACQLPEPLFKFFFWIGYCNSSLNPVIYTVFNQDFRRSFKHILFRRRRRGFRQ
value type: Ki (nM)

>>> result_number("[N-]=[N+]=Nc1ccc(NP(=O)(O)OP(=O)(O)OP(=O)(O)OC[C@H]2O[C@@H](n3cnc4c(=O)[nH]c(N)nc43)[C@H](O)[C@@H]2O)cc1 [CAS_59803-98-4]")
1.6
>>> result_number("Nc1ncnc2c1ncn2[C@@H]1O[C@H](COP(=O)(O)OP(=O)(O)OP(=O)(O)O)[C@@H](O)[C@H]1O")
3.1
